Target: human recombinant MC1R (CHO-K1 stable cell line, GenScript) (human, UniProt Q01726 1-317)
Sequence (Q01726 whole entry): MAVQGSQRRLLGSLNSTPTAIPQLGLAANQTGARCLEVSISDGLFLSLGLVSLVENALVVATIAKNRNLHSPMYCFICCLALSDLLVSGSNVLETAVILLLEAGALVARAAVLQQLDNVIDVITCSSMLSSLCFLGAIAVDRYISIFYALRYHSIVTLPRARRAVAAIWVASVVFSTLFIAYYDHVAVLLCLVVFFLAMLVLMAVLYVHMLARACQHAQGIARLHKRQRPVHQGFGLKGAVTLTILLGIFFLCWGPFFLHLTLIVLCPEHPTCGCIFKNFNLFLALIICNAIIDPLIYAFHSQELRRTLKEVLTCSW
Test: cell-based or functional assay
Starred links: 1 amine or outer side, 2 acyl side, 3 side chain; linkers in the order of their positions; H or OH if unused. Positions of bridges follow the written chain, without caps; N, C: chain ends. Non-standard residues stand in square brackets, D forms with d. *: point of attachment. dTyr(Me) = O-methyl-D-tyrosine, COc1ccc(C[C@@H](N[*:1])C(=O)[*:2])cc1; Benzoyl(3,5-(OH)2) = O=C(c1cc(O)cc(O)c1)*; dLys(N3) = [N-]=[N+]=NCCCC[C@@H](N)C(=O)O; NMeW = CN[C@@H](Cc1c[nH]c2ccccc12)C(=O)O; Lys(N3) = [N-]=[N+]=NCCCC[C@H](N)C(=O)O; NMeH = CN[C@@H](Cc1c[nH]cn1)C(=O)O; NMeR = CN[C@@H](CCCNC(=N)N)C(=O)O; Hpra = C#CCC[C@H](N)C(=O)O; dPra = C#CC[C@@H](N)C(=O)O; Nle = CCCC[C@H](N)C(=O)O; Pra = C#CC[C@H](N)C(=O)O
Sorting guide: entries reporting MC1R IC50 beneath 0.08 nM go in the Condition met pile, the rest go in the Condition not met pile.

{"BINDER": "Ac-[Nle][Lys(N3)]H[dTyr(Me)]RW[Pra]K-NH2 (triazole 2-7; not fully specified; printed as Ac-Nle-[Lys(N3)-His-DTyr(Me)-Arg-Trp-Pra]-Lys-NH2) [KR-058]", "CATEGORY": "Condition not met"}
{"BINDER": "Ac-[Nle][Lys(N3)]H[dF]RW[Hpra]K-NH2 (triazole 2-7; not fully specified; printed as Ac-Nle-[Lys(N3)-His-DPhe-Arg-Trp-HPra]-Lys-NH2) [KR-066]", "CATEGORY": "Condition met"}
{"BINDER": "Ac-[Nle][Lys(N3)]H[dF]RW[dPra]K-NH2 (triazole 2-7; not fully specified; printed as Ac-Nle-[Lys(N3)-His-DPhe-Arg-Trp-DPra]-Lys-NH2) [KR-070]", "CATEGORY": "Condition not met"}
{"BINDER": "Ac-[Nle][Lys(N3)][NMeH][dF][NMeR]W[Pra]-NH2 (triazole 2-7; not fully specified) [KR-052]", "CATEGORY": "Condition not met"}
{"BINDER": "Ac-EHFRWGKPV-NH2 [KR-004]", "CATEGORY": "Condition not met"}
{"BINDER": "{Benzoyl(3,5-(OH)2)}-[Nle][Lys(N3)]H[dF]RW[Pra]-NH2 (triazole 2-7; not fully specified; printed as HyBA-Nle-[Lys(N3)-His-DPhe-Arg-Trp-Pra]-NH2) [KR-073]", "CATEGORY": "Condition met"}
{"BINDER": "Ac-[Nle][dLys(N3)]H[dF]RW[Pra]K-NH2 (triazole 2-7; not fully specified; printed as Ac-Nle-[DLys(N3)-His-DPhe-Arg-Trp-Pra]-Lys-NH2) [KR-069]", "CATEGORY": "Condition not met"}
{"BINDER": "Ac-SYSMEHFR[NMeW]GKPV-NH2 [KR-024]", "CATEGORY": "Condition not met"}
